Measured values drawn from ChEMBL document CHEMBL2069261 for this set.

Target: Cystic fibrosis transmembrane conductance regulator (Homo sapiens, UniProt P13569, F508DEL)
Sequence (P13569 as listed by the source): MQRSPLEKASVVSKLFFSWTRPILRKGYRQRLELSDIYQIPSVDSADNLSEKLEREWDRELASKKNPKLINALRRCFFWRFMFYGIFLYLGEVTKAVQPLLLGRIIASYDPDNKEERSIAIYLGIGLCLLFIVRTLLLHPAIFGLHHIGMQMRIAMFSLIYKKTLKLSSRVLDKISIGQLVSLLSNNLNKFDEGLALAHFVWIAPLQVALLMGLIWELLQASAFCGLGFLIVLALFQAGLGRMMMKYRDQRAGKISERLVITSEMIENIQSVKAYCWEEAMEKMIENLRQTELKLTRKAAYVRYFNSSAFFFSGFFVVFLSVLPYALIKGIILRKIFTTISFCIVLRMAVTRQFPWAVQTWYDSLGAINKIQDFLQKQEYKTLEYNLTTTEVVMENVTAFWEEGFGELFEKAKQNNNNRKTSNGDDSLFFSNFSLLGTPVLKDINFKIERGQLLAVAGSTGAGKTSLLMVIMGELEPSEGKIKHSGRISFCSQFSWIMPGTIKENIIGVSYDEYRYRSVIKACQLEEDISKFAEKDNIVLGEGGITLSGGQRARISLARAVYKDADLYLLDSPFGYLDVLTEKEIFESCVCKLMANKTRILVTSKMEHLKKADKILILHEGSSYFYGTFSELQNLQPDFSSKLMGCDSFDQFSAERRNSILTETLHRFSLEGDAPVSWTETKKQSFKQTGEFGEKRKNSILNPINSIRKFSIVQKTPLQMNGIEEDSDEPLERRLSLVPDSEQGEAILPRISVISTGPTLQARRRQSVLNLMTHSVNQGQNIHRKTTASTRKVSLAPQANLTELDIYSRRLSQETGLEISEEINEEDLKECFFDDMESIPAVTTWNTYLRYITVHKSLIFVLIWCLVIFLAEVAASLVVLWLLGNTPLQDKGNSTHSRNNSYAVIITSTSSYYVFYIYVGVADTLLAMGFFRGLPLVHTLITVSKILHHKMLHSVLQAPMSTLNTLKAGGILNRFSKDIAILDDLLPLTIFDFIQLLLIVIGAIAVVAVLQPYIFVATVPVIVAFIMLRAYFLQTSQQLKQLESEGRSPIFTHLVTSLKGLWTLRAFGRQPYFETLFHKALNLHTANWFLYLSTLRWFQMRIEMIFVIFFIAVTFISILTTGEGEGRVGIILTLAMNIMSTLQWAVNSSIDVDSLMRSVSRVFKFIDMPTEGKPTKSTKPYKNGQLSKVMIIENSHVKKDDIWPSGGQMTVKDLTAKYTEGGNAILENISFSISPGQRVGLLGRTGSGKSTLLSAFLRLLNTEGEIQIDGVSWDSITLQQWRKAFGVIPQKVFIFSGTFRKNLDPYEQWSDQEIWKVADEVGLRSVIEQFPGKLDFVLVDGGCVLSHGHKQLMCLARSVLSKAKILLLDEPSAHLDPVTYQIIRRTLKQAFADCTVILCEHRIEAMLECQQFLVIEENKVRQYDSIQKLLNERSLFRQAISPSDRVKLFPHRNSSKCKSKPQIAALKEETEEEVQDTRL
Assay: Corrector activity at human CFTR deltaF508 mutant expressed in FRT cells stimulated forskolin and potentiator genistein with assessed as iodide influx incubated for 24 hrs
Hi! Could you tag entries with EC50 below 2000 nM as Y, and those at or above as N? Much appreciated.

1. COc1ccc(Cl)cc1Nc1nc(-c2sc(NC(=O)C(C)(C)C)nc2C)c(-n2cc(-c3ccccc3)nn2)s1 ... Y
2. COc1ccc(Cl)cc1Nc1nc(-c2sc(NC(=O)C(C)(C)C)nc2C)c(-n2cc(CO)nn2)s1 ... Y
3. CNc1nc(-c2sc(NC(=O)C(C)(C)C)nc2C)c(-n2cc(-c3ccccc3)nn2)s1 ... N

Problem: EC50 strictly < 2000 nM for this compound? COC(=O)c1cn(-c2sc(Nc3cc(Cl)ccc3OC)nc2-c2sc(NC(=O)C(C)(C)C)nc2C)nn1
Solution: N

Problem: Strictly below 2000 nM in EC50? Cc1nc(NC(=O)C(C)(C)C)sc1-c1nc(N)sc1-n1cc(-c2ccccc2)nn1
Solution: Y
